biological target: T1, human folate receptor alpha (hFRα), recombinant protein (human, UniProt P15328 25-233); experiment: BLI
T1 construct: Bought recombinant proteins (His-tagged, or biotinylated via Avi-tag, e.g. AcroBiosystems FO1-H82E2, F01-H52H1); also called hFOLR1; huFOLR1
T1 sequence (P15328 25-233 limits assumed): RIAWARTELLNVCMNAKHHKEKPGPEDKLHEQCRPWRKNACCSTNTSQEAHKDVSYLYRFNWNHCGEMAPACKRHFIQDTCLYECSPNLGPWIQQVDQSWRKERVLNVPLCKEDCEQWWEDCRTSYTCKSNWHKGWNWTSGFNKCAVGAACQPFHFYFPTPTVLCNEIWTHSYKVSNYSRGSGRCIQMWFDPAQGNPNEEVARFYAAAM
REPORTED_METRIC: koff (s⁻¹)
Just the number in s⁻¹, nothing appended.

Worked cases, answers included:
BINDER	koff / s⁻¹
P01500006: 2HF042(Q1E, Q5V, A14P, V40A, L79Y, K83R, Q108L)-FLAG3-HIS6 (VHH, Entry includes the tags; also called P0150006) VHH: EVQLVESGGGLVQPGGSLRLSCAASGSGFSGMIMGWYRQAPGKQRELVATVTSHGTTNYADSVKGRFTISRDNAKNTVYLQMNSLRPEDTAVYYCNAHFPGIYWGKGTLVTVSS	0.0132
P01500089: P0150001 with S27T, M32I, N76D (VHH) VHH: EVQLVESGGGLVQPGGSLRLSCAASGTGFSGIIMGWYRQAPGKQRELVATVTSHGTTNYADSVKGRFTISRDNAKDTVYLQMNSLRPEDTAVYYCNAHFPGIYWGKGTLVTVSS	0.0747
P01500088: P0150001 with S27T, M32I (VHH) VHH: EVQLVESGGGLVQPGGSLRLSCAASGTGFSGIIMGWYRQAPGKQRELVATVTSHGTTNYADSVKGRFTISRDNAKNTVYLQMNSLRPEDTAVYYCNAHFPGIYWGKGTLVTVSS	0.381
P01500090: P0150001 with A24V, S27L, M32P, N67E (VHH) VHH: EVQLVESGGGLVQPGGSLRLSCAVSGLGFSGPIMGWYRQAPGKQRELVATVTSHGTTNYADSVKGRFTISRDNAKETVYLQMNSLRPEDTAVYYCNAHFPGIYWGKGTLVTVSS	0.0259
P01500085: P0150001 with A24V, S27L, M32P (VHH) VHH: EVQLVESGGGLVQPGGSLRLSCAVSGLGFSGPIMGWYRQAPGKQRELVATVTSHGTTNYADSVKGRFTISRDNAKNTVYLQMNSLRPEDTAVYYCNAHFPGIYWGKGTLVTVSS	0.0159

q: What koff value was documented for this binder, P01500014: P0150001 with M32P (VHH, Entry carries a His6 tag) VHH: EVQLVESGGGLVQPGGSLRLSCAASGSGFSGPIMGWYRQAPGKQRELVATVTSHGTTNYADSVKGRFTISRDNAKNTVYLQMNSLRPEDTAVYYCNAHFPGIYWGKGTLVTVSS ?
a: 0.0255

Cited source for all entries: patent US20250304677A1
